Experiment: tandem ring-opening/ring-closing metathesis (ROM-RCM) of side-chain norbornene with two Glu allyl esters to bicyclic peptide; Hoveyda-Grubbs 2nd gen (M720), two portions (library procedure)
Settings: the molecule shown is the open-chain precursor; 28-membered ring; 1,2-dichloroethane; resin; 70.0 °C
Consider the following compounds and their measured ring closure, conversion by HPLC (% (semiquantitative, mass spectrometry)) readings.
Number only, please.

INSERT INTO measurements (compound_structure_string, data_value) VALUES
  ('C=CCOC(=O)CC[C@H](NC(=O)[C@@H]1CCCN1C(=O)[C@H](CC(C)C)NC(=O)[C@H](C)NC(=O)[C@H](CCCCNC(=O)[C@@H]1C[C@H]2C=C[C@@H]1C2)NC(=O)[C@@H](NC(=O)[C@@H](NC(=O)[C@H](Cc1ccccc1)NC(=O)[C@H](CCC(=O)OCC=C)NC(=O)OCC1c2ccccc2-c2ccccc21)[C@@H](C)CC)C(C)C)C(N)=O', 2);

Ask: What does the data say about its ring closure, conversion by HPLC (% (semiquantitative, mass spectrometry))? Entry: "C=CCOC(=O)CC[C@H](NC(=O)[C@H](CC(C)C)NC(=O)[C@H](C)NC(=O)[C@H](CCCCNC(=O)[C@H]1C[C@H]2C=C[C@@H]1C2)NC(=O)[C@@H](NC(=O)[C@@H](NC(=O)[C@H](Cc1ccccc1)NC(=O)[C@H](CCC(=O)OCC=C)NC(=O)OCC1c2ccccc2-c2ccccc21)[C@@H](C)CC)C(C)C)C(N)=O"
Reply: 65

Ask: // ring closure, conversion by HPLC (% (semiquantitative, mass spectrometry)) lookup, key: "C=CCOC(=O)CC[C@H](NC(=O)[C@H](CC(C)C)NC(=O)[C@@H]1CCCN1C(=O)[C@H](C)NC(=O)[C@H](CCCCNC(=O)[C@H]1C[C@H]2C=C[C@@H]1C2)NC(=O)[C@@H](NC(=O)[C@@H](NC(=O)[C@H](Cc1ccccc1)NC(=O)[C@H](CCC(=O)OCC=C)NC(=O)OCC1c2ccccc2-c2ccccc21)[C@@H](C)CC)C(C)C)C(N)=O"
Reply: 45

====

Measured ring closure, conversion by HPLC (% (semiquantitative, mass spectrometry)) values are reported for all entries that follow.
Assay: tandem ring-opening/ring-closing metathesis (ROM-RCM) of side-chain norbornene with two Glu allyl esters to bicyclic peptide; Hoveyda-Grubbs 2nd gen (M720), two portions (library procedure)
Conditions: the molecule shown is the open-chain precursor; 28-membered ring; 1,2-dichloroethane; resin; 70.0 °C
Answer with the value's number alone.

These solved cases illustrate the format of a correct answer.
INSERT INTO results (compound_structure_string, data_value) VALUES
  ('C=CCOC(=O)CC[C@H](NC(=O)[C@H](CC(C)C)NC(=O)[C@H](C)NC(=O)[C@H](CCCCNC(=O)[C@@H]1C[C@H]2C=C[C@@H]1C2)NC(=O)[C@@H](NC(=O)[C@@H](NC(=O)[C@H](Cc1ccccc1)NC(=O)[C@H](CCC(=O)OCC=C)NC(=O)OCC1c2ccccc2-c2ccccc21)[C@@H](C)CC)C(C)C)C(N)=O', 18),
  ('C=CCOC(=O)CC[C@H](NC(=O)[C@H](CC(C)C)NC(=O)[C@H](C)NC(=O)[C@@H]1CCCN1C(=O)[C@H](CCCCNC(=O)[C@@H]1C[C@H]2C=C[C@@H]1C2)NC(=O)[C@@H](NC(=O)[C@@H](NC(=O)[C@H](Cc1ccccc1)NC(=O)[C@H](CCC(=O)OCC=C)NC(=O)OCC1c2ccccc2-c2ccccc21)[C@@H](C)CC)C(C)C)C(N)=O', 14);

Ask: I would be grateful if you could share the reported ring closure, conversion by HPLC (% (semiquantitative, mass spectrometry)) for "C=CCOC(=O)CC[C@H](NC(=O)[C@H](CC(C)C)NC(=O)[C@H](C)NC(=O)[C@@H]1CCCN1C(=O)[C@H](CCCCNC(=O)[C@H]1C[C@H]2C=C[C@@H]1C2)NC(=O)[C@@H](NC(=O)[C@@H](NC(=O)[C@H](Cc1ccccc1)NC(=O)[C@H](CCC(=O)OCC=C)NC(=O)OCC1c2ccccc2-c2ccccc21)[C@@H](C)CC)C(C)C)C(N)=O" .
Reply: 47
